Sourced from patent US20250032484A1

Test system: VA patients with PTSD (PTSD symptoms, PTSD Checklist)
Method: TreeScan nested case-control study of medications associated with PTSD symptom improvement (PTSD Checklist) in VA records
Assay type: in vivo, human
Measurement context: overall sample without any concurrent evidence-based treatment
Below: a set of entries, each annotated with reported OBS = Observed Cases.
Measure name: OBS = Observed Cases

[
  {
    "Compound": "CN(C)CCCC1(c2ccc(F)cc2)OCc2cc(C#N)ccc21 (centres unmarked)",
    "Target desc": "VA patients with PTSD (PTSD symptoms, PTSD Checklist)",
    "Numeric value": 1039
  },
  {
    "Compound": "Cc1ncc(C[n+]2csc(CCO)c2C)c(N)n1",
    "Target desc": "VA patients with PTSD (PTSD symptoms, PTSD Checklist)",
    "Numeric value": 146
  },
  {
    "Compound": "[Li]",
    "Target desc": "VA patients with PTSD (PTSD symptoms, PTSD Checklist)",
    "Numeric value": 127
  },
  {
    "Compound": "O=c1n(CCCN2CCN(c3cccc(Cl)c3)CC2)nc2ccccn12",
    "Target desc": "VA patients with PTSD (PTSD symptoms, PTSD Checklist)",
    "Numeric value": 1272
  },
  {
    "Compound": "CN1CCN2c3ncccc3Cc3ccccc3C2C1 (centres unmarked)",
    "Target desc": "VA patients with PTSD (PTSD symptoms, PTSD Checklist)",
    "Numeric value": 849
  },
  {
    "Compound": "CN(C)CCC[C@@]1(c2ccc(F)cc2)OCc2cc(C#N)ccc21",
    "Target desc": "VA patients with PTSD (PTSD symptoms, PTSD Checklist)",
    "Numeric value": 558
  },
  {
    "Compound": "COC(=O)N[C@H](C(=O)N1CCC[C@H]1c1nc2cc(F)c([C@H]3CC[C@H](c4cc5[nH]c([C@@H]6CCCN6C(=O)[C@@H](NC(=O)OC)[C@@H](C)OC)nc5cc4F)N3c3cc(F)c(N4CCC(c5ccc(F)cc5)CC4)c(F)c3)cc2[nH]1)[C@@H](C)OC",
    "Target desc": "VA patients with PTSD (PTSD symptoms, PTSD Checklist)",
    "Numeric value": 14
  },
  {
    "Compound": "Nc1nc2ncc(CNc3ccc(C(=O)N[C@@H](CCC(=O)O)C(=O)O)cc3)nc2c(=O)[nH]1",
    "Target desc": "VA patients with PTSD (PTSD symptoms, PTSD Checklist)",
    "Numeric value": 185
  }
]
